Biological target: Bek (Homo sapiens)
Sequence (P21802 431-767 limits assumed): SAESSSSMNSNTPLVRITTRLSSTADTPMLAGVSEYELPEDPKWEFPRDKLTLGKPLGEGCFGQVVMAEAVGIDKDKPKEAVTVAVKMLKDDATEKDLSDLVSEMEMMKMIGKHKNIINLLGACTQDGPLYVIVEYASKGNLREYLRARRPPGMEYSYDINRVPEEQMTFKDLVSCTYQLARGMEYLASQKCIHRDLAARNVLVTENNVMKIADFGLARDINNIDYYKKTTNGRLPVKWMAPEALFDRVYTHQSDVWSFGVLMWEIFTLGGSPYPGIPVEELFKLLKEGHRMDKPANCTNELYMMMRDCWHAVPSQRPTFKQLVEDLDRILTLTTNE
Experiment: Inhibitory activity against Bek-autophosphorylation using ELISA method in OCUM-2MD3 cells
Conditions: 1 hr with compound, read-out: IC50 (concentration necessary for inhibiting 50% of Bek-phosphorylation)
pIC50: −log10 of the molar value. Where a name gives a salt, the structure may show the parent alone.
Everything with pIC50 lower than 7 is FALSE; everything else, including exactly 7, is TRUE.

* COc1cc2c(Oc3ccc(NC(=O)NCCC(C)(C)C)c(Cl)c3)ccnc2cc1OCCN(C)CCO [Compound 177] | TRUE
* COc1cc2c(Oc3ccc(NC(=O)NCCC(C)(C)C)cc3)ccnc2cc1OCCCN1CCOCC1 [Compound 155, hydrochloride] | TRUE
* COc1cc2c(Oc3ccc(NC(=O)NCCC(C)(C)C)c(Cl)c3)ccnc2cc1OCCCN1CCCCCC1 [Compound 181] | TRUE
* COc1cc2c(Oc3ccc(NC(=O)NCCC(C)(C)C)cc3F)ccnc2cc1OCCCN1CCC(O)CC1 [Compound 286] | TRUE
* COc1cc2nccc(Oc3ccc(NC(=O)NC4CCCC(C)(C)C4)c(Cl)c3)c2cc1OC (stereo not drawn) [Compound 110] | TRUE
* CCN(CCO)CCOc1cc2nccc(Oc3ccc(NC(=O)NCCC(C)(C)C)c(F)c3)c2cc1OC [Compound 341] | TRUE
* COc1cc2c(Oc3ccc(Nc4ccc(C(C)(C)C)cc4)cc3)ccnc2cc1OCC(O)CN1CCCC1 (stereo not drawn) [Compound 61] | FALSE
* COc1cc2c(Oc3ccc(NC(=O)NCCC(C)(C)C)c(Cl)c3)ccnc2cc1OCCN1CCOCC1 [Compound 114] | TRUE
* COc1cc2c(Oc3ccc(NC(=O)NC4CCCC(C)(C)C4)c(F)c3)ccnc2cc1OCCN1CC(C)OC(C)C1 (stereo not drawn) [Compound 134] | TRUE
* COc1cc2c(Oc3ccc(Nc4ccc(C(C)(C)C)cc4)c(Cl)c3)ccnc2cc1OCCN1CCC(CCO)CC1 [Compound 293] | FALSE
* COc1cc2c(Oc3ccc(NC(=O)NCCC(C)(C)C)c(Cl)c3)ccnc2cc1OCC1CCN(CCO)CC1 [Compound 170] | TRUE
* CCN(CCO)CCCOc1cc2nccc(Oc3ccc(NC(=O)NCCC(C)(C)C)c(Cl)c3)c2cc1OC [Compound 345] | TRUE
* COc1cc2c(Oc3ccc(NC(=O)NCCC(C)(C)C)c(Cl)c3)ccnc2cc1OCC1CCCNC1 (stereo not drawn) [Compound 190] | TRUE
* COc1cc2c(Oc3ccc(Nc4ccc(C(C)(C)C)cc4)cc3)ccnc2cc1OCCN1CCC(N2CCCC2)CC1 [Compound 243] | FALSE
* COc1cc2c(Oc3ccc(NC(=O)NCCC(C)(C)C)c(Cl)c3)ccnc2cc1OCCCl [Compound 160] | TRUE
* COc1cc2c(Oc3ccc(NC(=O)NCCC(C)(C)C)c(Cl)c3)ccnc2cc1OCCCCl [Compound 161] | FALSE
* COc1cc2c(Oc3ccc(Nc4ccc(C(C)(C)C)cc4)cc3Cl)ccnc2cc1OCCCN1CCC(CCO)CC1 [Compound 314] | FALSE
* COc1cc2c(Oc3ccc(NC(=O)NCCC(C)(C)C)cc3)ccnc2cc1OCCCN1CC(C)OC(C)C1 (stereo not drawn) [Compound 244] | TRUE
* COc1cc2c(Oc3ccc(NC(=O)NCCC(C)(C)C)c(Cl)c3)ccnc2cc1OCCN1C[C@@H](C)O[C@@H](C)C1 [Compound 116] | TRUE
* COc1cc2c(Oc3ccc(Nc4ccc(C(C)(C)C)cc4)cc3)ccnc2cc1OCCN(C)CCO [Compound 348, hydrochloride] | FALSE
* COc1cc2nccc(Oc3ccc(N(C)c4ccc(C(C)(C)C)cc4)cc3)c2cc1OC [Compound 20] | FALSE
* COc1cc2c(Oc3ccc(NC(=O)NCCC(C)(C)C)c(Cl)c3)ccnc2cc1OCCCN1CCCCC1 [Compound 180] | TRUE
* COc1cc2nccc(Oc3ccc(NC(=O)NCCC(C)(C)C)cc3)c2cc1OCCCN1CCC(CCO)CC1 [Compound 324] | FALSE
* COc1cc2c(Oc3ccc(NC(=O)NCCC(C)(C)C)cc3Cl)ccnc2cc1OCCN1CCOCC1 [Compound 126] | TRUE
* COc1cc2nccc(Oc3ccc(NC(=O)NCCC(C)(C)C)cc3)c2cc1OCCCN1CCOCC1 [Compound 223] | TRUE
* CCCN(CCO)CCOc1cc2nccc(Oc3ccc(NC(=O)NCCC(C)(C)C)cc3)c2cc1OC [Compound 369] | TRUE
* COc1cc2ncnc(Oc3ccc(Nc4ccc(C(C)(C)C)cc4)cc3)c2cc1OC [Compound 74] | FALSE
* COc1cc2c(Oc3ccc(NC(=O)NCCC(C)(C)C)cc3)ccnc2cc1OCCN(CC(C)O)CC(C)O (stereo not drawn) [Compound 360] | TRUE
* COc1cc2c(Oc3ccc(Nc4ccc(C(C)(C)C)cc4)cc3)ccnc2cc1OCC(O)CN1CCCCC1 (stereo not drawn) [Compound 62] | FALSE
* COCCN1CCC(COc2cc3nccc(Oc4ccc(NC(=O)NCCC(C)(C)C)c(Cl)c4)c3cc2OC)CC1 [Compound 171] | TRUE
